- Test system: Sodium/Iodide Symporter (NIS), SLC5A5 (gene 6528)
- method notes: CPHEA_Stoker_NIS_Inhibition_RAIU: CPHEA's Radioactive Iodide Uptake (RAIU) Assay for Sodium/Iodide Symporter (NIS) Inhibition, Stoker and Laws Labs (AID 2283841)
Inconclusive results are not listed. The source made the active and inactive calls. The calls were made as follows: active = hit-call score of the fitted dose curve at least 0.9, where 1 is the maximum; inconclusive = response in the unintended direction; inactive = score below 0.9.
readout kind: outcome

>>> recorded_result("CCN(Cc1c(F)cccc1Cl)c1c([N+](=O)[O-])cc(C(F)(F)F)cc1[N+](=O)[O-]")
"inactive"
>>> recorded_result("C#CCOC(=O)[C@@H](C)Oc1ccc(Oc2ncc(Cl)cc2F)cc1")
"inactive"
>>> recorded_result("Cc1nn(C)c(Oc2ccccc2)c1C=NOCc1ccc(C(=O)OC(C)(C)C)cc1")
"inactive"
